SYSTEM TESTED: T1, natural human CCL21 (secreted and isolated from transfected HEK-293T cells) (human, UniProt O00585 24-134)
T1 sequence: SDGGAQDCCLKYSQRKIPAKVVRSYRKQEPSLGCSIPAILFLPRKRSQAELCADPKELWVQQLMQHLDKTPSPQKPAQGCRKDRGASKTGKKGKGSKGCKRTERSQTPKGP
METHOD: cell-based or functional assay
MEASUREMENT TYPE: % inhibition of migration, natural hCCL21, H9 cells, 1:1 molar ratio (4th cell)
Number first, unit second: that is the form wanted.

According to the records, this binder MOR08389_g3-23_g3j (antibody, human IgG1, lambda, V domains shown) VH: EVQLLESGGGLVQPGGSLRLSCAASGFTFNSYSMSWVRQAPGKGLEWVSAISMEGYSKSYADSVKGRFTISRDNSKNTLYLQMNSLRAEDTAVYYCARGYGYYFDVWGQGTLVTVSS VL: SYELTQPLSVSVALGQTARITCGGDSIGSQYASWYQQKPGQAPVLVIYDDNERPSGIPERFSGSNSGNTATLTISRAQAGDEADYYCSSWDMDAVNVFGGGTKLTVLG displays % inhibition of migration, natural hCCL21, H9 cells, 1:1 molar ratio (4th cell) of 82%
